Target: ornithine 4,5-aminomutase (OAM) (Acetoanaerobium sticklandii, UniProt E3PY95, E335Q)
Sequence (E3PY96 whole entry): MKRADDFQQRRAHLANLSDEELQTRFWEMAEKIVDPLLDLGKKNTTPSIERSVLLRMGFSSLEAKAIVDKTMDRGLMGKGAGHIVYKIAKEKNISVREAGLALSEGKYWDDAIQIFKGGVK
Sequence (E3PY95 whole entry, stated change not applied): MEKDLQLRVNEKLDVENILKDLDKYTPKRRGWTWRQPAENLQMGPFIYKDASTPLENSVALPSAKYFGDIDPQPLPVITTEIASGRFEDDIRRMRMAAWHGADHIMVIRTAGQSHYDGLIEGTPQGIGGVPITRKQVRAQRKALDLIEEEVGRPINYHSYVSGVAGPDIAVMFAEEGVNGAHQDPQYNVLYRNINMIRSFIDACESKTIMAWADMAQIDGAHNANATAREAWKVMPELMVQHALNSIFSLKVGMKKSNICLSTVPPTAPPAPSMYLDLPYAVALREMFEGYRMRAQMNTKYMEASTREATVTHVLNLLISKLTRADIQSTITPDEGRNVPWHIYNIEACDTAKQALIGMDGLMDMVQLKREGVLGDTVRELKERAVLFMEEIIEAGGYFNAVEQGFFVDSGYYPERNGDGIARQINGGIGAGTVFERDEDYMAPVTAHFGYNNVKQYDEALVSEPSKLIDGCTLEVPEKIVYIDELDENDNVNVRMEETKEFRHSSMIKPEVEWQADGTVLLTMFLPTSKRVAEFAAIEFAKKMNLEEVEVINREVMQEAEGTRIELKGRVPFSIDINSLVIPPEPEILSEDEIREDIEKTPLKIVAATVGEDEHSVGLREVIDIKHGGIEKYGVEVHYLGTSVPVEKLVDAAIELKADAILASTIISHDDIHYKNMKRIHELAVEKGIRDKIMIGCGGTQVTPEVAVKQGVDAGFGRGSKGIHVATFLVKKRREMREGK
Test: biochemical
observed-property: Ki
# answer = value followed by unit

Ask | For the molecule shown here, NCCC(N)C(=O)O (racemic) [D,L-2,4-diaminobutyric acid] , give the reported Ki.
Reply | 11.2 µM

###

Molecular target: ornithine 4,5-aminomutase (OAM) (Acetoanaerobium sticklandii, UniProt E3PY95, E335D)
Sequence (E3PY96 whole entry): as the sequence (E3PY96 whole entry) above
Sequence (E3PY95 whole entry, stated change not applied): as the sequence (E3PY95 whole entry, stated change not applied) above
Test: biochemical
observed-property: Ki (µM)
The reply should be a number in µM, with the unit left off.

Ask | Suppose we examine the compound NCCC(N)C(=O)O (racemic) ; what Ki value has been reported?
Reply | 15.2
